system: MDAMB157; experiment: area over the GR curve, 72 h; higher = more effect;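 note: Dye Drop or Deep Dye Drop imaging of viable cells in 384-well plates (Hoechst nuclei, LIVE/DEAD dye), nine half-log doses, GR normalized to DMSO controls and time-zero plates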
Quantity: area over the GR curve (GR)

| Molecule | Reading unit | Readout number |
| --- | --- | --- |
| CCOc1cc2ncc(C#N)c(Nc3ccc(OCc4ccccn4)c(Cl)c3)c2cc1NC(=O)/C=C/CN(C)C [Neratinib/HKI272] (max 3.162 µM) | GR | 0.191 |
| COc1cc([C@@H]2c3cc4c(cc3[C@@H](O[C@@H]3O[C@@H]5CO[C@@H](C)O[C@H]5[C@H](O)[C@H]3O)[C@H]3COC(=O)[C@H]23)OCO4)cc(OC)c1O [Etoposide] (max 10 µM) | GR | 0.609 |
| CC[C@@H]1C(=O)N(C)c2cnc(Nc3ccc(C(=O)N[C@H]4CC[C@H](N5CCN(CC6CC6)CC5)CC4)cc3OC)nc2N1C(C)C [Volasertib/BI6727] (max 1 µM) | GR | 0.851 |
